molecular target: T1, cynomolgus CCR8 (cynomolgus, UniProt G7NYJ2 1-355); assay: FACS on HEK293-cynomolgus CCR8 cells
T1 construct: whole, on cells
T1 sequence (G7NYJ2 entry or part of it): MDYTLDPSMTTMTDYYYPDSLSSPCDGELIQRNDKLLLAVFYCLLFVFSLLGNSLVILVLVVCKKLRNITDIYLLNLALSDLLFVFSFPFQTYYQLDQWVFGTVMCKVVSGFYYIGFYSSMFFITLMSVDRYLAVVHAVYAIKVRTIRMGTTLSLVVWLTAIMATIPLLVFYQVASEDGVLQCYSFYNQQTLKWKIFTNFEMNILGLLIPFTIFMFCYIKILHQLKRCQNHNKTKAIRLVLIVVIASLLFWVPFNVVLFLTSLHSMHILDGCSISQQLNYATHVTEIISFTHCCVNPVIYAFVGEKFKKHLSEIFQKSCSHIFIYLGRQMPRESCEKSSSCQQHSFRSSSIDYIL
pEC50: −log10 of the molar value.
Quick reference for pEC50 among some binders
MEASURED_PARAMETER: pEC50

BINDER	RECORDED_MEASUREMENT
Hu149-24 (antibody, human IgG1, V domains shown, human IgG1) VH: EVQLVESGGGLVQPGGSLKLSCAASGFTFNTYAMNWVRQAPGKGLEWVGRIRSKSNFYATAYAASVKGRFTISRDDSKNTAYLQMNSLKTEDTAVYYCTRGKEYGSSYAMDYWGQGTLVTVSS VL: DIVMTQSPLSLPVTPGEPASISCRSSKSLLHSNANTYLYWFLQKPGQSPQLLIYRMSNLASGVPDRFSGSGSGTDFTLKISRVEAEDVGVYYCMQHLKYPLTFGGGTKVELK	9.79
Hu149-20 (antibody, human IgG1, V domains shown, human IgG1) VH: EVQLVESGGGLVQPGGSLKLSCAASGFTFNTYAMNWVRQASGKGLEWVGRIRSKSNFYATAYAASVKGRFTISRDDSKNTAYLQMNSLKTEDTAVYYCTRGKEYGSSYAMDYWGQGTLVTVSS VL: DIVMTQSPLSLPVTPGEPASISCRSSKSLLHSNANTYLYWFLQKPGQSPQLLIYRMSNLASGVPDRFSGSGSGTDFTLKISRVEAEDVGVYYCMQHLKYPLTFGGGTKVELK	9.80
Hu149-14 (antibody, human IgG1, V domains shown, human IgG1) VH: EVQLVESGGGLVQPGGSLKLSCAASGFTFNTYAMNWVRQASGKGLEWVGRIRSKSNFYATAYAASVKGRFTISRDDSKNTAYLQMNSLKTEDTAVYYCTRGREYGSAYAMDYWGQGTLVTVSS VL: DIVMTQSPLSLPVTPGEPASISCRSSKSLLHSNANTYLYWFLQKPGQSPQLLIYRMSNLASGVPDRFSGSGSGTDFTLKISRVEAEDVGVYYCMQHLEYPLTFGGGTKVELK	9.80
Hu149-22 (antibody, human IgG1, V domains shown, human IgG1) VH: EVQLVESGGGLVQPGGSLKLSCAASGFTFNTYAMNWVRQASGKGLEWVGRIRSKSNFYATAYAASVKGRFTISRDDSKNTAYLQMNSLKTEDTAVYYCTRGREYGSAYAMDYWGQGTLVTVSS VL: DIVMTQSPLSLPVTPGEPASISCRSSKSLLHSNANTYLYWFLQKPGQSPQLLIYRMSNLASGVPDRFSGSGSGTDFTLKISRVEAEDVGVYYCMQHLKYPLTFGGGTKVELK	9.34
Hu149-23 (antibody, human IgG1, V domains shown, human IgG1) VH: EVQLVESGGGLVQPGGSLKLSCAASGFTFNTYAMNWVRQAPGKGLEWVGRIRSKSNFYATAYAASVKGRFTISRDDSKNTAYLQMNSLKTEDTAVYYCTRGREYGSSYAMDYWGQGTLVTVSS VL: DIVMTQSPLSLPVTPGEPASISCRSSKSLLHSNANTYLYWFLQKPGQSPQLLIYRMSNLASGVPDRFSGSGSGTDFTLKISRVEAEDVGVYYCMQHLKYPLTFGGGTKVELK	9.43
Hu149-18 (antibody, human IgG1, V domains shown, human IgG1) VH: EVQLVESGGGLVQPGGSLKLSCAASGFTFNTYAMNWVRQASGKGLEWVGRIRSKSNFYATAYAASVKGRFTISRDDSKNTAYLQMNSLKTEDTAVYYCTRGRDYGSSYAMDYWGQGTLVTVSS VL: DIVMTQSPLSLPVTPGEPASISCRSSKSLLHSNANTYLYWFLQKPGQSPQLLIYRMSNLASGVPDRFSGSGSGTDFTLKISRVEAEDVGVYYCMQHLRYPLTFGGGTKVELK	10.08
Hu149-17 (antibody, human IgG1, V domains shown, human IgG1) VH: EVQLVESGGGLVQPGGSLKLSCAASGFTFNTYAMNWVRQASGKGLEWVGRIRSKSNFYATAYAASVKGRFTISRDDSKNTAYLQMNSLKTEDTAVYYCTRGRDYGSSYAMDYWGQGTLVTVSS VL: DIVMTQSPLSLPVTPGEPASISCRSSKSLLHSNANTYLYWFLQKPGQSPQLLIYRMSNLASGVPDRFSGSGSGTDFTLKISRVEAEDVGVYYCMQHLSYPLTFGGGTKVELK	9.91
Hu149-16 (antibody, human IgG1, V domains shown, human IgG1) VH: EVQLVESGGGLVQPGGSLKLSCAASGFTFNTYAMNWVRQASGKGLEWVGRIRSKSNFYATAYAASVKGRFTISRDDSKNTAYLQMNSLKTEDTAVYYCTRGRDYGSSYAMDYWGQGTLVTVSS VL: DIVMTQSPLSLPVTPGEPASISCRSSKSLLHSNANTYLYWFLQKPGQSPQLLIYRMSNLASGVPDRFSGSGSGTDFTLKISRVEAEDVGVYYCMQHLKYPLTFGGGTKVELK	9.85
Hu149-19 (antibody, human IgG1, V domains shown, human IgG1) VH: EVQLVESGGGLVQPGGSLKLSCAASGFTFNTYAMNWVRQASGKGLEWVGRIRSKSNFYATAYAASVKGRFTISRDDSKNTAYLQMNSLKTEDTAVYYCTRGREYGSSYAMDYWGQGTLVTVSS VL: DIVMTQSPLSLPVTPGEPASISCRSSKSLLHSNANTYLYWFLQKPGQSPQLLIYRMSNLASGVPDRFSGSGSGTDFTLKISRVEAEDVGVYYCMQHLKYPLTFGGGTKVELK	9.67
Hu149-9 (antibody, human IgG1, V domains shown, humanized, human IgG1; also called Hu149-9 HuIgG1) VH: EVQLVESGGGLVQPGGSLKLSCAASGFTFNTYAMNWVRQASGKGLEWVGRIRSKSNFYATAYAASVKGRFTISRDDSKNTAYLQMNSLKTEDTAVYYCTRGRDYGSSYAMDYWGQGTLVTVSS VL: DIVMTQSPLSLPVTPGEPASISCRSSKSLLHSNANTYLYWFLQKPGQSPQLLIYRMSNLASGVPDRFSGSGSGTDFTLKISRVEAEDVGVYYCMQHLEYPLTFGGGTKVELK	10.08
Hu149-13 (antibody, human IgG1, V domains shown, human IgG1) VH: EVQLVESGGGLVQPGGSLKLSCAASGFTFNTYAMNWVRQASGKGLEWVGRIRSKSNFYATAYAASVKGRFTISRDDSKNTAYLQMNSLKTEDTAVYYCTRGREYGRSYAMDYWGQGTLVTVSS VL: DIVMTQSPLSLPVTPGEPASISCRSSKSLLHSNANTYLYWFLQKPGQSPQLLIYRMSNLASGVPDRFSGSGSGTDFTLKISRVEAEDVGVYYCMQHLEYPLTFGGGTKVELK	9.71
